# tgt: T1, human CTLA-4 (human, UniProt P16410 36-223)
# T1 construct: whole, on cells; also called huCTLA4
# assay_info: flow cytometry, CHO cells stably expressing huCTLA4, 33.3 nM, PE anti-human Fc
property_measured: MFI at 33.3 nM (MFI)

S15T/H18Y/E35D/M47V/T62A/N64S/A71G/L85Q/D90N CD80 IgV-Fc (Fc fusion, not shown: a dimerising Fc or GST) VIHVTKEVKEVATLTCGYNVSVEELAQTRIYWQKDKKMVLTMMSGDVNIWPEYKNRTIFDIANSLSIVILGLRPSDEGTYECVVQKYEKNAFKREHLAEVTLSVKAD :: 11000
Q33R/M47V/T62N/A71G CD80 IgV-Fc (Fc fusion, not shown: a dimerising Fc or GST) VIHVTKEVKEVATLSCGHNVSVEELAQTRIYWRKEKKMVLTMMSGDVNIWPEYKNRTIFDINNNLSIVILGLRPSDEGTYECVVLKYEKDAFKREHLAEVTLSVKAD :: 308
H18Y/V22A/E35D/T41S/M47V/T62N/A71G/A91G CD80 IgV-Fc (Fc fusion, not shown: a dimerising Fc or GST) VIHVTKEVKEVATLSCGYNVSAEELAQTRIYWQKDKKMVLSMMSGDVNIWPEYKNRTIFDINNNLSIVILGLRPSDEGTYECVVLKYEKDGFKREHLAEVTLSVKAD :: 10300

a: E35D/D46E/M47L/V68M/L85Q/F92L CD80 IgV-Fc (Fc fusion, not shown: a dimerising Fc or GST) VIHVTKEVKEVATLSCGHNVSVEELAQTRIYWQKDKKMVLTMMSGELNIWPEYKNRTIFDITNNLSIMILALRPSDEGTYECVVQKYEKDALKREHLAEVTLSVKAD
b: E35D/M47I/T62S/L85Q/E88D CD80 IgV-Fc (Fc fusion, not shown: a dimerising Fc or GST) VIHVTKEVKEVATLSCGHNVSVEELAQTRIYWQKDKKMVLTMMSGDINIWPEYKNRTIFDISNNLSIVILALRPSDEGTYECVVQKYDKDAFKREHLAEVTLSVKAD
Qu. Pick one: a or b . Which has the bigger MFI at 33.3 nM number? Output the label that corresponds to your choice.
Ans. b
(b: 8910 MFI, a: 214 MFI)
